test: recombinant barcode read abundance after kanamycin selection (control-corrected) (log10(CPM+1)); higher = more efficient recombination; sequences stand for … in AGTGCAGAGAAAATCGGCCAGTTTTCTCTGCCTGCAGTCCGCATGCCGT…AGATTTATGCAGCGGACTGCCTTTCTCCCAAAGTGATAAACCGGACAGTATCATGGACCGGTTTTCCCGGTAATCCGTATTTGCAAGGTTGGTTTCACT; site = the 11-nt target;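 note: IS621 recombinase and bridge RNA in Escherichia coli cells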
readout_label: recombinant barcode read abundance (log10)

>  <sequence_data>
ACAAAGACTTGGGTTCTAACCTGTTGCGC (site ACACAGACTGC)

>  <experimental_result>
0.242

$$$$
>  <sequence_data>
CTGGGCCCTTGGGTTCTAACCTGTTGCCT (site CTGTGCCCTAG)

>  <experimental_result>
0.214

$$$$
>  <sequence_data>
CAAACTCCTTGGGTTCTAACCTGTTGCGT (site CAAACTCCTAT)

>  <experimental_result>
0.0528

$$$$
>  <sequence_data>
TACTCCTCTTGGGTTCTAACCTGTTGCGG (site CTAAAAGCTTG)

>  <experimental_result>
0.0539

$$$$
>  <sequence_data>
GGAATCCCTTGGGTTCTAACCTGTTGCCT (site GGAATCCCTAG)

>  <experimental_result>
1.64

$$$$

----------
experiment: recombinant barcode read abundance after kanamycin selection (control-corrected) (log10(CPM+1)); higher = more efficient recombination; sequences stand for … in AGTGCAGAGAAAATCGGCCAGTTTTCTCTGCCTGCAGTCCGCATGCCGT…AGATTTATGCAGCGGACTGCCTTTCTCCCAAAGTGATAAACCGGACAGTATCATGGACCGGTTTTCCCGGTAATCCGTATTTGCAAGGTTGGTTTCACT; site = the 11-nt target
Each entry gets false (0) if its recombinant barcode read abundance (log10) stays under 0.1, and true (1) if its recombinant barcode read abundance (log10) is 0.1 or above.

>  <sequence_data>
GGATATCCTTGGGTTCTAACCTGTTGCTT (site GGATATCCTAA)

>  <category_label>
true (1)

$$$$
>  <sequence_data>
CATGCTCCTTGGGTTCTAACCTGTTGCAT (site CATGCTCCTAT)

>  <category_label>
true (1)

$$$$
>  <sequence_data>
TAGAGCACTTGGGTTCTAACCTGTTGCCT (site AAGAGCACTAG)

>  <category_label>
false (0)

$$$$
>  <sequence_data>
GCACCACCTTGGGTTCTAACCTGTTGCCT (site GCACTACCTAG)

>  <category_label>
true (1)

$$$$
>  <sequence_data>
CGTTAACCTTGGGTTCTAACCTGTTGCGT (site CGTCAACCTAC)

>  <category_label>
true (1)

$$$$
>  <sequence_data>
CCGCATGCTTGGGTTCTAACCTGTTGCCT (site CCGTATGCTAG)

>  <category_label>
false (0)

$$$$
>  <sequence_data>
CGTTCATCTTGGGTTCTAACCTGTTGCCT (site CGATCATCTAG)

>  <category_label>
false (0)

$$$$
>  <sequence_data>
ATTCACACTTGGGTTCTAACCTGTTGCGT (site CGATTAGCTCG)

>  <category_label>
false (0)

$$$$
>  <sequence_data>
TTCTTTCCTTGGGTTCTAACCTGTTGCCT (site TTCTGTCCTAG)

>  <category_label>
false (0)

$$$$
>  <sequence_data>
AAGTGAGCTTGGGTTCTAACCTGTTGCAG (site AATAGAGCTCT)

>  <category_label>
true (1)

$$$$
